Target: Human Dopamine D3 receptor (Homo sapiens)
Construct: expressed in transfected cells; host or cells: CHO cells
Sequence (P35462 whole entry): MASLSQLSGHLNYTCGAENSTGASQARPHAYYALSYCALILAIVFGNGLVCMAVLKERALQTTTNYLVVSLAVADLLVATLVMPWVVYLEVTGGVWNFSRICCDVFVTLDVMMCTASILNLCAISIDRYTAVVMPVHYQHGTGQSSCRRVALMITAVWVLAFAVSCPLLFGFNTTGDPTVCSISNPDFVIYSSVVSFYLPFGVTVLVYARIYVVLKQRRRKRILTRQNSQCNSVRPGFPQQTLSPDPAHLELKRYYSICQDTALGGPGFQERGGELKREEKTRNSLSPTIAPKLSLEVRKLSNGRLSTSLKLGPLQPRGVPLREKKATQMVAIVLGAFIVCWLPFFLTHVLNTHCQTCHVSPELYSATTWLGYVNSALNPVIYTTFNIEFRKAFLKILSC
Test: Radioligand binding experiment for dopamine D3 receptor (hD3), [125I]Iodosulpride
Settings: membranes of D3 receptor-transfected CHO cells, read-out: pIC50 D3 (converted)
I'd appreciate it if you marked entries t when IC50 is lower than 200 nM and f when it is not.

>  <compound>
Fc1ccc2[nH]cc(C3CCN(CC4COc5ccncc5O4)CC3)c2c1 (stereo not shown) [Compound 5]

>  <group>
t

$$$$
>  <compound>
Fc1ccc2[nH]cc(C3=CCN(CC4COc5cccnc5O4)CC3)c2c1 (stereo not shown) [I, reference compound]

>  <group>
f

$$$$
>  <compound>
Fc1ccc2[nH]cc(CCCNCC3COc4ccncc4O3)c2c1 (stereo not shown) [Compound 6]

>  <group>
t

$$$$
>  <compound>
Fc1ccc2[nH]cc(CCCNCC3COc4cccnc4O3)c2c1 (stereo not shown) [Compound 11]

>  <group>
f

$$$$
>  <compound>
Fc1ccc2[nH]cc(CCCNCC3Oc4cccnc4O3)c2c1 (stereo not shown) [Compound 9]

>  <group>
f

$$$$
>  <compound>
CN1CC(CNCCCc2c[nH]c3ccc(F)cc23)Oc2ncccc21 (stereo not shown) [Compound 3]

>  <group>
f

$$$$
>  <compound>
Fc1ccc2[nH]cc(C3=CCN(CC4Oc5cccnc5O4)CC3)c2c1 (stereo not shown) [Compound 7]

>  <group>
t

$$$$
>  <compound>
CN1CC(CN2CCC(c3c[nH]c4ccc(F)cc34)CC2)Oc2ncccc21 (stereo not shown) [Compound 2]

>  <group>
t

$$$$
>  <compound>
Fc1cccc2[nH]cc(C3=CCN(CC4COc5ccncc5O4)CC3)c12 (stereo not shown) [Compound 12]

>  <group>
t

$$$$
>  <compound>
CN1CC(CN2CC=C(c3c[nH]c4ccc(F)cc34)CC2)Oc2ncccc21 (stereo not shown) [Compound 1]

>  <group>
t

$$$$

###

Biological target: Human Dopamine D2L receptor (Homo sapiens, UniProt P14416)
Construct: expressed in transfected cells; host or cells: CHO cells
Sequence (P14416 whole entry): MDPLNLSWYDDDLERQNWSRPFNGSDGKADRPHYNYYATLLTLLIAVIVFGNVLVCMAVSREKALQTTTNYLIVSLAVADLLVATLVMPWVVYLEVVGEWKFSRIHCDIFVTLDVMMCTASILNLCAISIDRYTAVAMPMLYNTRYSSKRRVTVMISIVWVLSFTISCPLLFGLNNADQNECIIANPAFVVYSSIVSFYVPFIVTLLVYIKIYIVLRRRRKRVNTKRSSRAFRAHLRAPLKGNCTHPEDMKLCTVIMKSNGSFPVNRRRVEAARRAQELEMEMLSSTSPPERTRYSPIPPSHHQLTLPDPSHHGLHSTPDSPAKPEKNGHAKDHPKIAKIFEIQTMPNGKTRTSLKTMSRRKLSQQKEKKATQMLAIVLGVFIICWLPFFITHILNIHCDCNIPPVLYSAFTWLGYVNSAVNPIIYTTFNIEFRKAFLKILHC
Test: Radioligand binding experiment for dopamine D2 receptor (hD2), [3H]Spiperone
Settings: membranes of D2L receptor-transfected CHO cells, read-out: pIC50 D2 (converted)

>  <compound>
Brc1ccc2[nH]cc(C3=CCN(CC4COc5ccncc5O4)CC3)c2c1 (centres unmarked) [Compound 13]

>  <IC50 (nM)>
158

$$$$
>  <compound>
Oc1ccc2[nH]cc(C3CCN(CC4COc5ccncc5O4)CC3)c2c1 (centres unmarked) [Compound 19]

>  <IC50 (nM)>
63.1

$$$$
>  <compound>
Fc1ccc2[nH]cc(CCCNCC3COc4cccnc4O3)c2c1 (centres unmarked) [Compound 11]

>  <IC50 (nM)>
158

$$$$
>  <compound>
Fc1ccc2[nH]cc(CCCNCC3COc4ccncc4O3)c2c1 (centres unmarked) [Compound 6]

>  <IC50 (nM)>
200

$$$$
>  <compound>
N#Cc1ccc2[nH]cc(C3CCN(CC4COc5ccncc5O4)CC3)c2c1 (racemic) [Compound 20]

>  <IC50 (nM)>
63.1

$$$$
>  <compound>
Fc1cccc2c(C3=CCN(CC4COc5ccncc5O4)CC3)c[nH]c12 (centres unmarked) [Compound 17]

>  <IC50 (nM)>
126

$$$$
>  <compound>
Fc1ccc2[nH]cc(C3CCN(CC4COc5ccncc5O4)CC3)c2c1 (centres unmarked) [Compound 5]

>  <IC50 (nM)>
79.4

$$$$
>  <compound>
O=[N+]([O-])c1ccc2[nH]cc(C3=CCN(CC4COc5ccncc5O4)CC3)c2c1 (single isomer, unassigned) [Compound 16]

>  <IC50 (nM)>
316

$$$$
